Overview of reported AC50 across a group of molecules:
study-target: Amine oxidase [flavin-containing] A (Homo sapiens, UniProt P21397); also: assay procedure not described here
Sequence (P21397 whole entry): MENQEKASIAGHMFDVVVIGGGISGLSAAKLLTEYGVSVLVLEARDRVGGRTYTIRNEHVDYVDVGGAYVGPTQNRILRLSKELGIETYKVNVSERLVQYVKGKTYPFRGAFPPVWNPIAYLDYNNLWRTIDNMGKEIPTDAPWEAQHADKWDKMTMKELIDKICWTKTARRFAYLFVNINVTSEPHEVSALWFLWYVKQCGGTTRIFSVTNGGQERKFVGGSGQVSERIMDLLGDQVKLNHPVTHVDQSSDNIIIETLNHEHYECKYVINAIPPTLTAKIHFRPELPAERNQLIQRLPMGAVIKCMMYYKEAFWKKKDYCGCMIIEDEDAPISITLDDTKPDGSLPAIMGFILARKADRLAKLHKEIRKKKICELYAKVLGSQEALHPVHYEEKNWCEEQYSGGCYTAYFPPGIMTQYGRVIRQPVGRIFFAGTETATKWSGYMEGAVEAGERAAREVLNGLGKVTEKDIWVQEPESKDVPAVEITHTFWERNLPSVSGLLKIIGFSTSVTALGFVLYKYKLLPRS
Type: functional

molecule | AC50
Clc1ccc(CCCOCCCN2CCCCC2)cc1 [PITOLISANT] | > 30 µM
C=CCC1(C(C)CC)C(=O)NC(=O)NC1=O (configuration not stated) [TALBUTAL] | > 10 µM
O=C(O)/C=C/c1ccc(Cn2ccnc2)cc1 [OZAGREL] | > 30 µM
Cc1ccc(-c2cc(C(F)(F)F)nn2-c2ccc(S(N)(=O)=O)cc2)cc1 [CELECOXIB] | > 10 µM
O=C(O)C[C@H](O)C[C@H](O)/C=C/c1c(C2CC2)nc2ccccc2c1-c1ccc(F)cc1 [PITAVASTATIN] | > 30 µM
CC(=O)O[C@H]1C[C@@H]2CC[C@@H]3[C@H](CC[C@@]4(C)[C@H]3C[C@H]([N+]3(C)CCCCC3)[C@@H]4OC(C)=O)[C@@]2(C)C[C@@H]1N1CCCCC1 [VECURONIUM] | > 30 µM
C=CCc1ccccc1OCC(O)CNC(C)C (configuration not stated) [ALPRENOLOL] | > 30 µM
CCCCN1C[C@H](O)[C@@H](O)[C@H](O)[C@H]1CO | > 30 µM
O=C(Cc1ccc(-c2ccccc2)cc1)Nc1ccccn1 [DIFENPIRAMIDE] | > 30 µM
Cc1cn([C@H]2C[C@H](N=[N+]=[N-])[C@@H](CO)O2)c(=O)[nH]c1=O [ZIDOVUDINE] | > 10 µM
O=C(O)C1=C(CSc2nnnn2CS(=O)(=O)O)CS[C@@H]2[C@H](NC(=O)[C@H](O)c3ccccc3)C(=O)N12 [CEFONICID] | > 30 µM
CC(C(=O)O)c1ccc(N2Cc3ccccc3C2=O)cc1 (configuration not stated) [INDOPROFEN] | > 30 µM
COc1ccc(C(=O)Nc2ccccc2CCC2CCCCN2C)cc1 (configuration not stated) [ENCAINIDE] | > 10 µM
Brc1c(NC2=NCCN2)ccc2nccnc12 [BRIMONIDINE] | > 30 µM
CC1(C)CCC(CN2CCN(c3ccc(C(=O)NS(=O)(=O)c4ccc(NCC5CCOCC5)c([N+](=O)[O-])c4)c(Oc4cnc5[nH]ccc5c4)c3)CC2)=C(c2ccc(Cl)cc2)C1 [VENETOCLAX] | > 30 µM
CCCC(C)C1(CC)C(=O)NC(=O)NC1=O (configuration not stated) [PENTOBARBITAL] | > 30 µM
NCC[C@H](O)C(=O)N[C@@H]1C[C@H](N)[C@@H](O[C@H]2O[C@H](CN)[C@@H](O)[C@H](O)[C@H]2O)[C@H](O)[C@H]1O[C@H]1O[C@H](CO)[C@@H](O)[C@H](N)[C@H]1O [AMIKACIN] | > 10 µM

----------
Overview of reported AC50 across a group of molecules:
study-target: cGMP-inhibited 3',5'-cyclic phosphodiesterase 3A (Homo sapiens, UniProt Q14432); also: assay procedure not described here
Sequence (Q14432 whole entry): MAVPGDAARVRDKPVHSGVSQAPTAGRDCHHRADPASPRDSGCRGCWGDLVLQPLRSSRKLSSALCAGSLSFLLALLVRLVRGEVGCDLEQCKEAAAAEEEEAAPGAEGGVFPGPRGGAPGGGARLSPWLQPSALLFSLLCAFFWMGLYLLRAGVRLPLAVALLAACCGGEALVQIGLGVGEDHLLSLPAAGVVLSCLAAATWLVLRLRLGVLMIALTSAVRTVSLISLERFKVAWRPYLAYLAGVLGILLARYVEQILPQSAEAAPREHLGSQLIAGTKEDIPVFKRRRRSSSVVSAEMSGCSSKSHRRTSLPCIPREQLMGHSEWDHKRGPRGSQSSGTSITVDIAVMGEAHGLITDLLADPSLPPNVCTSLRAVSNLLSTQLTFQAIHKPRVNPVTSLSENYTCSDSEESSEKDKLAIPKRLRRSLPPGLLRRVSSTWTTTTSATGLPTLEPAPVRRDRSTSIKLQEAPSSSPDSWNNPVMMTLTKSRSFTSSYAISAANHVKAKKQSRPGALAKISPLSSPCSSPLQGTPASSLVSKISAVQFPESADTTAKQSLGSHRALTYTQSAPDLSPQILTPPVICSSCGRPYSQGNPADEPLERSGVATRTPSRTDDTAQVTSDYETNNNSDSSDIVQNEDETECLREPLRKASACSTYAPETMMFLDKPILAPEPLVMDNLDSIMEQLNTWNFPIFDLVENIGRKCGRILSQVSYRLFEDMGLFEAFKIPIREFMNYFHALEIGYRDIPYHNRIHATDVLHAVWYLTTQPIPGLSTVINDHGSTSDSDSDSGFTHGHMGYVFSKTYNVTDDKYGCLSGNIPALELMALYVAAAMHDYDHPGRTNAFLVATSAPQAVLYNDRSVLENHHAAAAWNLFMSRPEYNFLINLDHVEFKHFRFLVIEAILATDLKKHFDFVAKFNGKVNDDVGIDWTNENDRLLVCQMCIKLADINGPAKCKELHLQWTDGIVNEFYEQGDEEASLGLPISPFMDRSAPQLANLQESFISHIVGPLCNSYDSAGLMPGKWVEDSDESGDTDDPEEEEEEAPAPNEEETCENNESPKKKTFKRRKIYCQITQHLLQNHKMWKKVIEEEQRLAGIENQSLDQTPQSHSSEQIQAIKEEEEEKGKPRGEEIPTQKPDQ
Format: functional

molecule | AC50
COc1cc(NC(C)CCCN)c2ncccc2c1 (centres undefined) | 2.9 µM
CCC(C(=O)O)c1ccc(N2Cc3ccccc3C2=O)cc1 (centres undefined) | > 30 µM
COc1ccccc1OCC(O)CN1CCN(CC(=O)Nc2c(C)cccc2C)CC1 (centres undefined) | > 30 µM
Cc1ccc(-n2nccn2)c(C(=O)N2CCN(c3nc4cc(Cl)ccc4o3)CC[C@H]2C)c1 | > 30 µM
C=CCC1(CC(C)C)C(=O)NC(=O)NC1=O | > 30 µM
COC(=O)C1=C(C)NC(C)=C(C(=O)OC(C)(C)CN(C)CCC(c2ccccc2)c2ccccc2)C1c1cccc([N+](=O)[O-])c1 (centres undefined) | 25 µM
CCOc1ccc(Cc2cc([C@@H]3O[C@H](CO)[C@@H](O)[C@H](O)[C@H]3O)ccc2Cl)cc1 | > 30 µM
Clc1ccc(C(c2ccccc2Cl)C(Cl)Cl)cc1 (centres undefined) | > 30 µM
CC(Oc1c(Cl)cccc1Cl)C1=NCCN1 (centres undefined) | > 30 µM
